Overview of reported IC50 across a group of compounds:
- assay_system: p38α activated, mitogen-activated protein kinase-activated protein kinase 2 (MAPKAP-K2 or MK2) enzyme (Homo sapiens (Human))
- assay_notes: MK2 Omnia continuous-read kinase assay for compound potency
- Type: biochemical
- condition_parameters: [MK-2]=0.4 nM, [ATP]=10 μM, [ST3-Sox]=10 μM; read-out: MK2 IC50
quantity: IC50

• COCCOc1cc(Cl)nc(Nc2ccc3c(ccc4sc5c(c43)NC[C@@H](C)NC5=O)n2)n1 = < 100 nM
• CCOC(=O)c1cnc(Nc2ccc3c(ccc4sc5c(c43)NC[C@@H](C)NC5=O)n2)nc1Cl = < 100 nM
• C[C@@H]1CNc2c(sc3ccc4nc(Oc5cc(Cl)ncn5)ccc4c23)C(=O)N1 = < 100 nM
• C[C@@H]1CNc2c(sc3ccc4nc(Oc5nc(Cl)ncc5Br)ccc4c23)C(=O)N1 = < 100 nM
• C[C@@H]1CNc2c(sc3ccc4nc(Oc5cc(CN(C)C(C)(C)C)nc(Cl)n5)ccc4c23)C(=O)N1 = 501 to 999 nM
• C[C@@H]1CNc2c(sc3ccc4nc(Nc5cc(F)nc(OCCN6CCN(C)CC6)n5)ccc4c23)C(=O)N1 = < 100 nM
• CCOC(=O)c1cnc(Cl)nc1Nc1ccc2c(ccc3sc4c(c32)NC[C@@H](C)NC4=O)n1 = < 100 nM
• C[C@@H]1CNc2c(sc3ccc4nc(Nc5cc(Cl)nc(OCCN6CCN(C)CC6)n5)ccc4c23)C(=O)N1 = < 100 nM
• O=C1N[C@H](CO)CNc2c1sc1ccc3nc(Nc4cc(F)ncn4)ccc3c21 = < 100 nM
• CNC[C@@H]1CNc2c(sc3ccc4nc(Nc5cc(F)ncn5)ccc4c23)C(=O)N1 = 101 to 500 nM
• COCCOc1nc(Cl)cc(Nc2ccc3c(ccc4sc5c(c43)NC[C@@H](C)NC5=O)n2)n1 = < 100 nM
• C[C@@H]1CNc2c(sc3ccc4nc(Oc5nc(Cl)nc(N6CCCCC6)n5)ccc4c23)C(=O)N1 = < 100 nM
• CC(C)CN(Cc1cnc(Cl)nc1Oc1ccc2c(ccc3sc4c(c32)NC[C@@H](C)NC4=O)n1)CC(C)C = > 1000 nM
• C[C@@H]1CNc2c(sc3ccc4nc(Oc5nc(Cl)ncc5C5=CCN(C)CC5)ccc4c23)C(=O)N1 = < 100 nM
• NC[C@@H]1CNc2c(sc3ccc4nc(Nc5cc(Cl)ncn5)ccc4c23)C(=O)N1 = < 100 nM
• C[C@@H]1CNc2c(sc3ccc4nc(Nc5nc(Cl)ncc5C#N)ccc4c23)C(=O)N1 = < 100 nM
• COCCOc1cc(F)nc(Nc2ccc3c(ccc4sc5c(c43)NC[C@@H](C)NC5=O)n2)n1 = < 100 nM

---

Quick list: IC50 per entry.
- assay_system: p38α activated, mitogen-activated protein kinase-activated protein kinase 2 (MAPKAP-K2 or MK2) enzyme (Homo sapiens (Human))
- assay_notes: MK2 Omnia continuous-read kinase assay for compound potency
- Type: biochemical
- condition_parameters: [MK-2]=0.4 nM, [ATP]=10 μM, [ST3-Sox]=10 μM; read-out: MK2 IC50
quantity: IC50

• Cc1nc(Cl)cc(Oc2ccc3c(ccc4sc5c(c43)NC[C@@H](C)NC5=O)n2)n1 [I-58] = < 100 nM
• C[C@@H]1CNc2c(sc3ccc4nc(Oc5nc(Cl)ncc5CN5C[C@@H](C)N[C@@H](C)C5)ccc4c23)C(=O)N1 [I-115] = 101 to 500 nM
• C[C@@H]1CNc2c(sc3ccc4nc(Oc5nc(Cl)ncc5CN5CC6CC6C5)ccc4c23)C(=O)N1 (stereo partly drawn) [I-83] = 101 to 500 nM
• C[C@@H]1CNc2c(sc3ccc4nc(N(C)c5nc(Cl)ncc5C(N)=O)ccc4c23)C(=O)N1 [I-34] = 501 to 999 nM
• C[C@@H]1CNc2c(sc3ccc4nc(Nc5cc(Cl)ncc5C(N)=O)ccc4c23)C(=O)N1 [I-15] = < 100 nM
• O=C1N[C@H](CO)CNc2c1sc1ccc3nc(Nc4cc(Cl)ncn4)ccc3c21 [I-22] = < 100 nM
• C[C@@H]1CNc2c(sc3ccc4nc(Nc5cc(F)ncc5C#N)ccc4c23)C(=O)N1 [I-27] = < 100 nM
• C[C@@H]1CNc2c(sc3ccc4nc(Oc5nc(Cl)nc(N(C)C)n5)ccc4c23)C(=O)N1 [I-75] = < 100 nM
• COCc1nc(Cl)cc(Oc2ccc3c(ccc4sc5c(c43)NC[C@@H](C)NC5=O)n2)n1 [I-57] = < 100 nM
• C[C@@H]1CNc2c(sc3ccc4nc(Oc5nc(Cl)ncc5C5=CCOCC5)ccc4c23)C(=O)N1 [I-124] = < 100 nM
• COCCN(C)Cc1cnc(Cl)nc1Oc1ccc2c(ccc3sc4c(c32)NC[C@@H](C)NC4=O)n1 [I-90] = 101 to 500 nM
• COc1nc(Cl)nc(Oc2ccc3c(ccc4sc5c(c43)NC[C@@H](C)NC5=O)n2)n1 [I-76] = < 100 nM
• C[C@@H]1CNc2c(sc3ccc4nc(Nc5ccnc(S(C)(=O)=O)n5)ccc4c23)C(=O)N1 [I-14] = < 100 nM
• C[C@@H]1CNc2c(sc3ccc4nc(Oc5nc(Cl)ncc5CN5CCC[C@H]5C)ccc4c23)C(=O)N1 [I-99] = < 100 nM
• C[C@@H]1CNc2c(sc3ccc4nc(Nc5cc(F)nc(CN6CCN(C)CC6)n5)ccc4c23)C(=O)N1 [I-73] = < 100 nM
• C[C@@H]1CNc2c(sc3ccc4nc(Oc5nc(Cl)nc6c5CCCC6)ccc4c23)C(=O)N1 [I-109] = 101 to 500 nM
• C[C@@H]1CNc2c(sc3ccc4nc(Nc5cc(F)nc(CN6CCCCC6)n5)ccc4c23)C(=O)N1 [I-74] = < 100 nM
• C[C@@H]1CNc2c(sc3ccc4nc(Sc5cc(F)ncn5)ccc4c23)C(=O)N1 [I-54] = < 100 nM
• C[C@@H]1CNc2c(sc3ccc4nc(Oc5nc(Cl)nc(N6CCCC6)n5)ccc4c23)C(=O)N1 [I-62] = < 100 nM
• C[C@@H]1CNc2c(sc3ccc4nc(Oc5nc(Cl)ncc5COCCC#N)ccc4c23)C(=O)N1 [I-111] = < 100 nM
• COC(=O)c1nc(Cl)cc(Oc2ccc3c(ccc4sc5c(c43)NC[C@@H](C)NC5=O)n2)n1 [I-71] = < 100 nM
• C[C@@H]1CNc2c(sc3ccc4nc(Nc5cc(Cl)nc(OC6CCCN(C)C6)n5)ccc4c23)C(=O)N1 (stereo partly drawn) [I-59] = < 100 nM
• C[C@@H]1CNc2c(sc3ccc4nc(Oc5nc(Cl)nc6c5COC6)ccc4c23)C(=O)N1 [I-86] = < 100 nM
• C[C@@H]1CNc2c(sc3ccc4nc(Nc5nc(Cl)cc(OCCN6CCN(C)CC6)n5)ccc4c23)C(=O)N1 [I-61] = < 100 nM
• C[C@@H]1CNc2c(sc3ccc4nc(Nc5nc(Cl)ncc5C(=O)N5CC[C@@H](N(C)C)C5)ccc4c23)C(=O)N1 [I-24] = 501 to 999 nM
• C[C@@H]1CNc2c(sc3ccc4nc(Nc5cc(F)ncc5C(N)=O)ccc4c23)C(=O)N1 [I-29] = < 100 nM
• Cc1nc(F)cc(Oc2ccc3c(ccc4sc5c(c43)NC[C@@H](C)NC5=O)n2)n1 [I-65] = < 100 nM
• C[C@@H]1CNc2c(sc3ccc4nc(Oc5nc(Cl)ncc5CN5CCC(OCCF)CC5)ccc4c23)C(=O)N1 [I-131] = < 100 nM
• C[C@@H]1CNc2c(sc3ccc4nc(Oc5nc(Cl)nc(N6CCOCC6)n5)ccc4c23)C(=O)N1 [I-63] = < 100 nM
• C[C@@H]1CNc2c(sc3ccc4nc(Sc5ccnc(Cl)n5)ccc4c23)C(=O)N1 [I-72] = < 100 nM
• C[C@@H]1CNc2c(sc3ccc4nc(Nc5cc(F)nc(OC6CCCN(C)C6)n5)ccc4c23)C(=O)N1 (stereo partly drawn) [I-47] = < 100 nM
• C[C@@H]1CNc2c(sc3ccc4nc(Oc5nc(Cl)ncc5CS(C)(=O)=O)ccc4c23)C(=O)N1 [I-112] = < 100 nM
• C[C@@H]1CNc2c(sc3ccc4nc(Oc5cncc(Cl)n5)ccc4c23)C(=O)N1 [I-55] = 101 to 500 nM

---

- assay_system: p38α activated, mitogen-activated protein kinase-activated protein kinase 2 (MAPKAP-K2 or MK2) enzyme (Homo sapiens (Human), UniProt P49137)
- Sequence (P49137 whole entry): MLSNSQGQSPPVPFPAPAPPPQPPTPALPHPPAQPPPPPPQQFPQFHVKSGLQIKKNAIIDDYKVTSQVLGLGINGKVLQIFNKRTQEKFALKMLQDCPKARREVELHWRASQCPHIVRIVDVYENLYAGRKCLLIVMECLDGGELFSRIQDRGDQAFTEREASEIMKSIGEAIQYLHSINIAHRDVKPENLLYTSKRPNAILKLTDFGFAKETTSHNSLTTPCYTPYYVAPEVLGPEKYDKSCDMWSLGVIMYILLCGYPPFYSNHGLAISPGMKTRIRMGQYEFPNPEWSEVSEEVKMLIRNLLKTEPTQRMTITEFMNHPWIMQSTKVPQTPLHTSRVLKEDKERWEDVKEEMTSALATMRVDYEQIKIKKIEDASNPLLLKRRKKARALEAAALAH
- assay_notes: MK2 Omnia continuous-read kinase assay for compound potency
- Type: biochemical
quantity: IC50

- C[C@@H]1CNc2c(sc3ccc4nc(Oc5nc(Cl)ncc5CN5CC6CC(C6)C5)ccc4c23)C(=O)N1: 101 to 500 nM
- C[C@@H]1CNc2c(sc3ccc4nc(Oc5nc(Cl)ncc5CN5C6CCC5COC6)ccc4c23)C(=O)N1: 101 to 500 nM
- C[C@@H]1CNc2c(sc3ccc4nc(N(CCN(C)C)c5cc(F)ncn5)ccc4c23)C(=O)N1: 501 to 999 nM
